recorded.endpoint: melting point

| chemical.string | result |
| --- | --- |
| N#CCCS(=O)(=O)c1ccc(S(=O)(=O)Cl)cc1 | 124 to 125 °C |
| Cc1cc(C(=O)O)c(C)c2c1S(=O)(=O)CCC2(C)C | 209 °C |
| CN(C)c1nc(N(C)C)c2ccccc2n1 | 74 to 76 °C |
| CC(=O)N(c1ccccc1)c1ccc(C(=O)CBr)cc1 | 152 to 153 °C |
| COc1nc2sc(S(=O)(=O)Cc3ccccc3)nn2c(=O)c1[N+](=O)[O-] | 216 to 218 °C |
| COc1ccc(N(C)C(=O)CN(C(=O)CNC(=O)Nc2cccc(C)c2)c2ccccc2)cc1 | 202 °C |
| Cc1c(C#N)c(N)n(-c2c(Br)cc(C(F)(F)F)cc2Br)c1C | 158 to 161 °C |
